system: nifedipine oxidation (NFO) activities in rat intestinal microsomes; assay type: in vitro ADME; conditions: read-out: IC50, NFO activity, Intestine; ingredient; 10-min NADPH-fortified pre-incubation
Catalogue of compounds with associated IC50
Give the number; µM is assumed, so skip it.

COc1cc2c(c(OC)c1OC)-c1c(cc3c(c1OC)OCO3)CC(C)C(C)C2 (stereo not shown) : 8.9

Next up:
Value of measured IC50 for the entry `Cc1c(O)c(C)c2c(c1O)C(=O)[C@H](Cc1ccc3c(c1)OCO3)CO2` : 11.6

###

target: human CYP3A4 (Homo sapiens, UniProt P08684, S18F); type: in vitro ADME; settings: NFO activity; 10-min NADPH-fortified pre-incubation
MEASURE NAME: IC50 (µM)
Give the number; µM is assumed, so skip it.

Value of measured IC50 for the entry `Cc1c(O)c(C)c2c(c1O)C(=O)[C@H](Cc1ccc3c(c1)OCO3)CO2` : 17.4
